# System: upland rice (Oryza sp., var.Cocodrie, RICE)
# EXPERIMENTAL PROTOCOL: Greenhouse herbicide screen, pre-emerge application, crop damage rating
# Type: in vivo
# CONDITION DESCRIPTION: PRE emergent, 250 g ai/ha, 14 days after application, rating scale 0-100
# Experimental: A standard greenhouse herbicide activity screening system was used to evaluate the herbicidal efficacy and crop safety of these test compounds. […] At 14 days after application of the test materials, phytotoxicity ratings were recorded. […]
RECORDED ENDPOINT: crop damage rating RICE
Lab note: record the figure alone, no unit after it.

Would you please look over these solved cases?
[
  {
    "COMPOUND": "CN(NC(=O)c1cc(-n2c(=O)cc(C(F)(F)F)n(C)c2=O)c(F)cc1Cl)c1ccccc1",
    "crop damage rating RICE": 45
  },
  {
    "COMPOUND": "Cn1c(C(F)(F)F)cc(=O)n(-c2cc(C(=O)NN=C(c3ccccc3)c3ccccc3)c(Cl)cc2F)c1=O",
    "crop damage rating RICE": 0
  },
  {
    "COMPOUND": "CCOC(=O)NNC(=O)c1cc(-n2c(=O)cc(C(F)(F)F)n(C)c2=O)c(F)cc1Cl",
    "crop damage rating RICE": 85
  },
  {
    "COMPOUND": "Cn1c(C(F)(F)F)cc(=O)n(-c2cc(C(=O)NN3CCCC3)c(Cl)cc2F)c1=O",
    "crop damage rating RICE": 55
  },
  {
    "COMPOUND": "Cn1c(C(F)(F)F)cc(=O)n(-c2cc(C(=O)NNC(=O)OC(C)(C)C)c(Cl)cc2F)c1=O",
    "crop damage rating RICE": 30
  },
  {
    "COMPOUND": "CN1CCN(NC(=O)c2cc(-n3c(=O)cc(C(F)(F)F)n(C)c3=S)c(F)cc2Cl)CC1",
    "crop damage rating RICE": 50
  }
]

Field: next compound
Reported crop damage rating RICE of CC1CCCC(C)N1NC(=O)c1cc(-n2c(=O)cc(C(F)(F)F)n(C)c2=S)c(F)cc1Cl (stereo not shown) : 70

====

# System: lambsquarters (Chenopodium album, CHEAL)
# EXPERIMENTAL PROTOCOL: Greenhouse herbicide screen, post-emerge application, phytotoxicity rating
# Format: in vivo
# CONDITION DESCRIPTION: POST emergent, 63 g ai/ha, 14 days after application, scale 0-100
Entries and their phytotoxicity rating CHEAL
Lab note: record the figure alone, no unit after it.

Reported phytotoxicity rating CHEAL of CC1CCCC(C)N1NC(=O)c1cc(-n2c(=O)cc(C(F)(F)F)n(C)c2=S)c(F)cc1Cl (stereo not shown) [Compound 1-15] : 98

Reported phytotoxicity rating CHEAL of Cn1c(C(F)(F)F)cc(=O)n(-c2cc(C(=O)NN=C(c3ccccc3)c3ccccc3)c(Cl)cc2F)c1=O [Compound 6-15] : 90

Reported phytotoxicity rating CHEAL of CC(=O)OC(=NN=C(C)C(C)(C)C)c1cc(-n2c(=O)cc(C(F)(F)F)n(C)c2=O)c(F)cc1Cl [Compound 5-2] : 100

Reported phytotoxicity rating CHEAL of CC(=NN=C(OS(C)(=O)=O)c1cc(-n2c(=O)cc(C(F)(F)F)n(C)c2=O)c(F)cc1Cl)C(C)(C)C [Compound 5-3] : 80

Reported phytotoxicity rating CHEAL of Cn1c(C(F)(F)F)cc(=O)n(-c2cc(C(=O)NNC(=O)OC(C)(C)C)c(Cl)cc2F)c1=O [Compound 1-24] : 100

Reported phytotoxicity rating CHEAL of CN(C)NC(=O)c1cc(-n2c(=O)cc(C(F)(F)F)n(C)c2=O)ccc1Cl [Compound 1-4] : 99

Reported phytotoxicity rating CHEAL of Cn1c(C(F)(F)F)cc(=O)n(-c2cc(C(=O)NN3CCCC3)c(Cl)cc2F)c1=O [Compound 1-11] : 90
